Experiment Description: yeast display, Sf9 membrane polyspecificity reagent, FACS + sequencing; frameworks hold sequencing errors

- Sequence Code: "QVQLVESGGGLVQAGASLRLSCAASGRTLKVYAMGWYRQAPGKERELDAAINNGGSTNYADSVKGRFTISRDNAKNTVYLQMNSLKPEDTAVYYCNAVYYARYRKYTYYYWGQGTQVTVSS"
  polyreactivity (PSR sort gate): "high polyreactivity"
- Sequence Code: "QVQLVESGGGLVQAGGSLRLSCAASGRTFNRNAMGWYRQAPGKERELVAAISRGGGGTFYADSVKGRFTISRDNAKNTVYLQMNSLKPEDTAVYYCAAVPIAADKANGYDYWGQGTQVTVSS"
  polyreactivity (PSR sort gate): "low polyreactivity"
- Sequence Code: "QVQLVESGGGLVQAGGSLRLSCAASGLTLGSYTMGWYRQAPGKERELVAAIRKRGSSSYYADSVKGRFTISRDNAKNTVYLQMISQKPEDTAVYYCATDVASYWYRFFWRYGYWGQGTQVTVSS"
  polyreactivity (PSR sort gate): "low polyreactivity"
- Sequence Code: "QVQLVESGGGLVQAGGSLRLICAASGSTLAYNAMGWYRQAPGKERELVAGIRGSGGSTYYADSVKGRFTISRDNAKNTVYLQMNSLKPEDTAVYDCAADGLSNVRQMDYWGQGTQVTVSS"
  polyreactivity (PSR sort gate): "low polyreactivity"
- Sequence Code: "QVQLVESGGGLVQAGGSLRLSCAASGFIFYRYAMGWYRQAPGKERELVAAISRGDSTYYADSVKGRFTISRDNAKNTVYLQMNSLKPEDTAVYYCNADRPRYTYRATTYTGRYDYWGQGTQVTVSS"
  polyreactivity (PSR sort gate): "low polyreactivity"
- Sequence Code: "QVQLVESGGGLVQAGGSLRLSCAASGLIFPRYAMGWYRQAPGKERELVAAITSRAGSTYYADSVKGRFTISRDNAKNTVYLQMNSLKPEDTAVYYCAAVSDGWDGDMYYWGQGTQVTVSS"
  polyreactivity (PSR sort gate): "low polyreactivity"
- Sequence Code: "QVQLVESGGGLVQAGGSLRLSCAASGFIFKIYAMGWYRQAPGKERELVAAISSGDNTNYADSVKGRFTISRDNAKNTVYLQMNSLKPEDNAVYYCAALRYTYLGQLQWSRSGRYDYWGQGTQVTVSS"
  polyreactivity (PSR sort gate): "high polyreactivity"
- Sequence Code: "QVQLEESGGGLVQAGGSLRLSCAASGFTFNPYTMGWYRQAPGKERELVAAITSSGGSTYYADSVKGRFTISRDNAKNTVYLQMNSLKPEDTAVYYCAKLRTASIYDYWGQGTQVTVSS"
  polyreactivity (PSR sort gate): "low polyreactivity"
- Sequence Code: "QVQLVESWGGLVQAGGSLRLSCAASGRIFANYGMGWYRQAPRKERELVAAIDRSGGTTFYADSVKGRFTISRDNAKNTVYLQMNSLKPEDTAVYYCAAALSYWYYAYYYWGQGTQVTVSS"
  polyreactivity (PSR sort gate): "low polyreactivity"
- Sequence Code: "QVQLVESGGGLVQAGGSLRLSCAASGSTFPPYAMGRYRQAPGKERELVAAIDWSDGTTYYADSVKGRFTISRDYAKNTVYLQMNSLKPEDTAVYYCAGSLSQSEYDYWGQGTQVTVSS"
  polyreactivity (PSR sort gate): "low polyreactivity"
- Sequence Code: "QVQLVESGAGLVQAGGSLGLSCAPSGRIFGRYVRGWYRQAPGKERELVATITSRGGTTYYADSVKGRFTISRDNAKNTVFLQMISLKPEDTAVYYCAVRGLIRFSKYGYWGQGTQVTVSS"
  polyreactivity (PSR sort gate): "high polyreactivity"
- Sequence Code: "QDHLVESGRGLVQAGGSLRLSCAASGSIFPSYAMVWNRQAPGKERDLVDSITTSGGSTYYADSVKGRFTISRDNAKNTVYLQMNSLKPEDTAVYYCNARRYYYSWGREGGYWGQGTQVTVSS"
  polyreactivity (PSR sort gate): "low polyreactivity"
- Sequence Code: "QVQLVESGGGLVQAGGSLRLSCAASGFIFVRYAMGWYRQAPGKERELVASITRSGGSTYYADSVKGRFTISRDNAKNTVYLQMNSLKPEDTAVYYCNAGLLRRRMDYWGQGTQVTVSS"
  polyreactivity (PSR sort gate): "high polyreactivity"
- Sequence Code: "QDQLVDSGGGLVQAGGSLRLSCAASVRTFDRYAMGWYRQAPGKVRELVAAISGRGGSTYYADSVKGRFTISRDNAKNTVYLQMNSLKPEDTAVYYCAARGSLWGAPSDYYYCGQGTQVTVSS"
  polyreactivity (PSR sort gate): "high polyreactivity"
- Sequence Code: "QVQLVESGGGLVQAGGSLRLSCAASGRTLGGYAMGWYRQAPRKERELVAVITWNGGSTYADSVKGRFTISRDNAKNTVYLQMNSLKPVDTAVYYCAARQAYYAAFRTRYGYWGQGTQVTVSS"
  polyreactivity (PSR sort gate): "high polyreactivity"
- Sequence Code: "QVQLVESGGGLVQAGGSLRVSCAASGSIFGPYAMGLYRQAPGKERELVATSTYYADSVKGRFTISRDNAKNTVYLQMHRLKPEDTAVYYCAKTPYYSGYGWGYDYWGQGTQVTVSS"
  polyreactivity (PSR sort gate): "low polyreactivity"
- Sequence Code: "QVQLVESGGGLVQAGGSLRLTCAASGSIFTKYAMGWYRQAPGKERELVAGISSSGCSTYYADSVKGRFTISRDYAKNTVYLQMNSLKPEDTAVYYCAARGYYKYDYWGQGTQVTVSS"
  polyreactivity (PSR sort gate): "high polyreactivity"
- Sequence Code: "QVQLVESGGGLVQAGGSLRLSCAASGIIFSYNVMGWSREARGKEREFVAAISRSVGSTYYADSVKGRFTISRDNAKNTVYLPMNSLKPEDTAVYYCNARGKRRGKIPYSSYASSYDSWGQGTQVTVSS"
  polyreactivity (PSR sort gate): "high polyreactivity"
- Sequence Code: "QVQLVESGGGLVQAGGSLPLSSAASGFTFYRNAMGWYRQVPGKERELVAAITTRGVTTYYADSVKGRFTIARDYAKNTVYVLMNCLKPVDTAVYYFAAKKSLIGDYWGQGTQVTVSS"
  polyreactivity (PSR sort gate): "high polyreactivity"
- Sequence Code: "QVQLVESGGGLVQAGGSLRLSCAASGSTFYANAMGWYRQAPGKEREFVADITISGGRTYYADSVKGRFTISRDNAKNTVYLQMNSLKPEDTAVYYWNTRGIFFQSQTHDYWGQGTQVTVSS"
  polyreactivity (PSR sort gate): "low polyreactivity"
- Sequence Code: "QVQLVESGAGLVQAGGSLRLSCAASGFTFAFYAMGWSRQAPGKERELVAAITGSGGSTYYADSVKGRFTISRDNAKNTVYLQMNSLIPEVTAVYYCNNYTYYSRMDYWGPGTQVTVSS"
  polyreactivity (PSR sort gate): "high polyreactivity"
